Below, each entry is listed with its recorded PBM binding z-score.
Test system: THRa homodimer (NR concentration 90 nM)
Assay: PBM binding z-score (relative to random genomic background probes); higher = stronger binding; sequences stand for … in GC…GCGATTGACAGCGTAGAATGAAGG
Quick one: just the number, no unit, thanks!

These recorded examples may help you get a feel for the data.
- ATATGTAGGTTACATCCGGGTCATTCACGCTATG: 2.6
- GGAACGAGGGCATTCGGGTTGATAGCATGGCGAT: 0.0871
- AGAATGAGGATAAGATCAGGGAAACAGAATACAT: 0.69
- TCATATAGGTAAAAGGTGAAAGACGGTGTGGTAA: 0.208
- AATACAGGGTTATCGTAGGCCAGAGTACGCACAG: 0.15
- TCAGGCAGGTGAAGGTAACTCAGGTACGCAGTCG: 0.723
- GCTAGTTGGTCAGTAAAAGGTCACACTCCGGTCG: 2.19
- TCATATAGGTCATACAGGTGAAAGTCGGCATCTA: 0.973

q: # get_value(readout= PBM binding z-score, system= THRa homodimer (NR concentration 90 nM)) for "ATCGAAAGGTCGAAGGTGAGTATTCCCACCCGAA"
a: 0.00651

q: And then "TCGAGTAGGTTAGGGGGATTCAGAATGGCGTCGA" , what is it?
a: 1.01

q: And then "ACTATTAGTTGGGACGAGGGCAACCGATAGGTTG" , what is it?
a: 0.629

q: And then "TCTGCTAGGTCATTTGGTCAGCTAACGAGCTGCC" , what is it?
a: 0.658

q: And then "AGTCAAAGTTCAGGCCGAGGTAACGTAAAGCACG" , what is it?
a: 1.3

q: And then "ATCTCTAGGTAAAACTCAGTTCAGTGAAGAACGC" , what is it?
a: 0.901
